Source: patent US9850283B2

# IC50 values compiled below
Molecular target: LK35.2-hPD-L1 cells / PE-labeled PD-1-Ig (Homo sapiens)
Construct: expressed in transfected cells; host or cells: LK35.2 mouse B cell line
Assay: LK35.2-hPD-L1 cell binding high-content screening assay
Format: cell-based
Settings: cell binding assay, cell line not given; cluster symbol; read-out: CBA IC50 cluster
Positions of bridges follow the written chain, without caps; N, C: chain ends. Non-standard residues stand in square brackets, D forms with d. Residues, ends and D or L forms follow the SMILES beside them. *: point of attachment. Phe(4-CH2NH2) = NCc1ccc(C[C@H](N)C(=O)O)cc1; NMeF = CN[C@@H](Cc1ccccc1)C(=O)O; 3Pal = N[C@@H](Cc1cccnc1)C(=O)O; NMeNle = CCCC[C@H](NC)C(=O)O; OtBu = CC(C)(C)O*; Sar = CNCC(=O)O

CCCC[C@H]1C(=O)N(C)CC(=O)N[C@@H](CC(=O)OC(C)(C)C)C(=O)N[C@@H](C(C)C)C(=O)N(C)[C@@H](Cc2ccccc2)C(=O)N[C@@H](Cc2ccc(O)cc2)C(=O)N(C)CC(=O)N[C@@H](Cc2c[nH]c3ccccc23)C(=O)N[C@@H](Cc2ccc(O)cc2)C(=O)N[C@@H](CC(C)C)C(=O)N[C@H](C(=O)NCC(N)=O)CSCC(=O)N[C@@H](Cc2ccccc2)C(=O)N[C@@H](Cc2cccnc2)C(=O)N1C [Example 3604] ({CH2CO}-F[3Pal][NMeNle][Sar]D(OtBu)V[NMeF]Y[Sar]WYLCG-NH2; thioether N-13) | > 74.3 nM

Next molecule, IC50 to be filled in.
Problem: Report value: IC50, system: LK35.2-hPD-L1 cells / PE-labeled PD-1-Ig (Homo sapiens), molecule: CCCC[C@H]1C(=O)N(C)CC(=O)N[C@@H](CC(=O)O)C(=O)N[C@@H](C(C)C)C(=O)N(C)[C@@H](Cc2ccccc2)C(=O)N[C@@H](Cc2ccc(O)cc2)C(=O)N(C)CC(=O)N[C@@H](Cc2c[nH]c3ccccc23)C(=O)N[C@@H](Cc2ccc(CN)cc2)C(=O)N[C@@H](CC(C)C)C(=O)N[C@H](C(=O)NCC(N)=O)CSCC(=O)N[C@@H](Cc2ccccc2)C(=O)N(C)[C@@H](Cc2ccccc2)C(=O)N1C [Example 3514] ({CH2CO}-F[NMeF][NMeNle][Sar]DV[NMeF]Y[Sar]W[Phe(4-CH2NH2)]LCG-NH2; thioether N-13)
Solution: 4.78 to 72.9 nM

###

Target: LK35.2-hPD-L1 cells / PE-labeled PD-1-Ig (Homo sapiens, UniProt Q9NZQ7)
Construct: expressed in transfected cells; host or cells: LK35.2 mouse B cell line
Sequence (Q9NZQ7 19-290): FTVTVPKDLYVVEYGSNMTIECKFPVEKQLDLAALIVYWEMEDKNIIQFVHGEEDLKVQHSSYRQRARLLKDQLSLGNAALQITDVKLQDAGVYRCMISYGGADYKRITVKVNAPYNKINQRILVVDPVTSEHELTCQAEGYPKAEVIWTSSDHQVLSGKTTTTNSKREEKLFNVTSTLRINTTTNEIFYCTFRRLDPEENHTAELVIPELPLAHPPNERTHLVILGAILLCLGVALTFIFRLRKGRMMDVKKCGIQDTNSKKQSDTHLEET
Experiment: LK35.2-hPD-L1 cell binding high-content screening assay
Format: cell-based
Details: cell binding assay, cell line not given; cluster symbol; read-out: CBA IC50 cluster
Positions of bridges follow the written chain, without caps; N, C: chain ends. Non-standard residues stand in square brackets, D forms with d. Residues, ends and D or L forms follow the SMILES beside them. ξ: configuration not given here. Bta = N[C@@H](Cc1csc2ccccc12)C(=O)O; NMeNle = CCCC[C@H](NC)C(=O)O; NMeS = CN[C@@H](CO)C(=O)O; ξC = NC(CS)C(=O)O
parameter-measured: IC50

Problem: Tell me its IC50 given CCCC[C@H]1C(=O)N(C)[C@@H](CCCC)C(=O)N[C@@H](CCCNC(=N)N)C(=O)NC(C(=O)NCC(N)=O)CSCC(=O)N[C@@H](Cc2ccc(O)cc2)C(=O)N(C)[C@@H](CO)C(=O)N[C@@H](CC(N)=O)C(=O)N2CCC[C@H]2C(=O)N[C@@H](Cc2cnc[nH]2)C(=O)N[C@@H](CC(C)C)C(=O)N2CCC[C@H]2C(=O)N[C@@H](Cc2c[nH]c3ccccc23)C(=O)N[C@@H](CO)C(=O)N[C@@H](Cc2csc3ccccc23)C(=O)N1C (stereo partly shown) [Example 9035] ({CH2CO}-Y[NMeS]NPHLPWS[Bta][NMeNle][NMeNle]R[ξC]G-NH2; thioether N-14) as the entry.
Solution: 4.78 to 72.9 nM
